# credit: the supplement of paper PMC10567573

B1: ZER1 (parent)
chain: FDGPEAWGVCEPQREEVEERMWAA

Variants of: B1
Protocol Summary: protein stability index of a GFP-peptide fusion (GPS, HEK-293T) (PSI 1-6); higher = more stable;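 also: lentivirally expressed fusions sorted by FACS into six bins by GFP to DsRed ratio, PSI derived from sequencing read proportions per bin multiplied by bin number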
Details: c terminus: a fixed tail appended
Measurement Kind: protein stability index
Simply state the number, no unit and no words.

A23M | 3.08
D2K | 3.26
E18V | 2.12
E5Q | 3.54
E11H | 2.55
V9M | 2.63
W22L | 2.42
A6P | 3.77
E16I | 2.34
Q13F | 2.31

Given the entry "E15D" , report its measured protein stability index.
2.43
